- System: Meloidogyne incognita
- protocol text: Nematicidal activity against Meloidogyne incognita (root-knot nematode) juveniles J2 assessed as paralysis after 1 day
- Type: functional, organism-based
- condition notes: 24 h
Each item that follows carries a reported log10 of EC50.
Heads up: the numbers are on a log10 scale; they represent EC50 in µg/mL.

Exam item: Form field: reported log10 of EC50 of O=Cc1cccs1
Marked response: 1.15

Exam item: And what about the molecule O=Cc1ccc[nH]1 ?
Marked response: 2.59

Exam item: And what about the molecule O=Cc1c[nH]c2ccccc12 ?
Marked response: 2.48

Exam item: And what about the molecule N#Cc1c[nH]c2ccccc12 ?
Marked response: 1.84

Exam item: And what about the molecule CN=C=S [METHYLISOTHIOCYANATE] ?
Marked response: 0.90

Exam item: And what about the molecule O=Cc1ccc(C=O)s1 ?
Marked response: 0.05

Exam item: And what about the molecule O=Cc1ccccn1 ?
Marked response: 0.56

----------
- Test system: Meloidogyne incognita
- protocol text: Nematicidal activity against Meloidogyne incognita (root-knot nematode) juveniles J2 assessed as paralysis after 1 day
- Assay type: functional, organism-based
- condition notes: 24 h
endpoint: EC50

Record excerpt, results attached:
Exam item: Form field: reported EC50 of O/N=C/c1cccs1
Marked response: > 250 µg/mL

Exam item: And what about the compound N#Cc1ccc(C#N)s1 ?
Marked response: > 250 µg/mL

Exam item: And what about the compound O=C1Nc2ccccc2C1=O ?
Marked response: > 250 µg/mL

Exam item: And what about the compound Cn1cccc1C=O ?
Marked response: > 1000 µg/mL

Exam item: And what about the compound O=Cc1cccnc1 ?
Marked response: > 10 µg/mL

---
Exam item: Form field: reported EC50 of O=C1CCCN1
Marked response: > 250 µg/mL

Exam item: And what about the compound N#Cc1ccc(C=O)s1 ?
Marked response: > 250 µg/mL

Exam item: And what about the compound N#Cc1cccs1 ?
Marked response: > 100 µg/mL
